System: S. aureus ATCC 9144
Format: cell-based, Staphylococcus aureus
Details: ATCC 9144, 18 h
Experimental: Tests of the antibacterial activity were carried out as we just described. […] The MIC values were determined using the broth microdilution method according to the Clinical and Laboratory Standards Institute Protocol. […] The results were read after incubation for 18 h at 37 °C. […]
Where a SMILES comes first, the peptide text is derived from it. The star is where a group is joined. Octanoyl = CCCCCCCC(=O)*

molecule	unitSymbol	MIC S. aureus 9144
CCCCCCCC(=O)NCCCC[C@H](NC(=O)[C@@H](NC(=O)[C@H](CCCNC(=N)N)NC(=O)[C@H](CCC(N)=O)NC(=O)[C@@H](NC(=O)[C@@H](NC(=O)[C@H](CCCNC(=N)N)NC(=O)[C@@H](N)CCCCN)[C@@H](C)CC)C(C)C)[C@@H](C)CC)C(=O)N[C@@H](CC(=O)O)C(=O)N[C@@H](Cc1ccccc1)C(=O)N[C@@H](CC(C)C)C(=O)N[C@@H](CCCNC(=N)N)C(N)=O [VIII, [Lys^ε(C8)]^8KR12-NH2] (H-KRIVQRIK(Octanoyl)DFLR-NH2)	µg/mL	16

---

System: S. aureus ATCC 33591 (MRSA)
Assay type: cell-based, Staphylococcus aureus
Conditions: ATCC 33591, 18 h
Experimental: Tests of the antibacterial activity were carried out as we just described. […] The MIC values were determined using the broth microdilution method according to the Clinical and Laboratory Standards Institute Protocol. […] The results were read after incubation for 18 h at 37 °C. […]
Where a SMILES comes first, the peptide text is derived from it. The star is where a group is joined. Hydrocinnamoyl = O=C(CCc1ccccc1)*; Octanoyl = CCCCCCCC(=O)*

molecule	experimentalTarget	MIC S. aureus 33591 (µg/mL)
CCCCCCCC(=O)NCCCC[C@H](NC(=O)[C@H](CCCNC(=N)N)NC(=O)[C@H](CC(C)C)NC(=O)[C@H](Cc1ccccc1)NC(=O)[C@H](CC(=O)O)NC(=O)[C@H](CCCCN)NC(=O)[C@@H](NC(=O)[C@H](CCCNC(=N)N)NC(=O)[C@H](CCC(N)=O)NC(=O)[C@@H](NC(=O)[C@@H](NC(=O)[C@H](CCCNC(=N)N)NC(=O)[C@@H](N)CCCCN)[C@@H](C)CC)C(C)C)[C@@H](C)CC)C(N)=O [VI, KR12-Lys^ε(C8)-NH2] (H-KRIVQRIKDFLRK(Octanoyl)-NH2)	S. aureus ATCC 33591 (MRSA)	32
CC[C@H](C)[C@H](NC(=O)[C@H](CCCNC(=N)N)NC(=O)[C@H](CCC(N)=O)NC(=O)[C@@H](NC(=O)[C@@H](NC(=O)[C@H](CCCNC(=N)N)NC(=O)[C@H](CCCCN)NC(=O)CCc1ccccc1)[C@@H](C)CC)C(C)C)C(=O)N[C@@H](CCCCN)C(=O)N[C@@H](CC(=O)O)C(=O)N[C@@H](Cc1ccccc1)C(=O)N[C@@H](CC(C)C)C(=O)N[C@@H](CCCNC(=N)N)C(N)=O [XVII, 3-Phenylpropionic acid-KR12-NH2] (Hydrocinnamoyl-KRIVQRIKDFLR-NH2)	S. aureus ATCC 33591 (MRSA)	32

---

test system: human red blood cells (hRBCs); assay: Hemolysis assay; settings: 4% (v/v) erythrocytes in PBS, peptides 1–512 µg/mL, 1 h at 37 °C, hemoglobin at 540 nm, 100% = 1% Triton-X 100; ≥ means less than 5% hemolysis up to 512 µg/mL
Where a SMILES comes first, the peptide text is derived from it. The star is where a group is joined. Hydrocinnamoyl = O=C(CCc1ccccc1)*; Octanoyl = CCCCCCCC(=O)*
recordedEndpoint: MHC5 (minimum hemolytic concentration causing 5% hemolysis of hRBCs) (µg/mL)

compound	observedResult
CCCCCCCC(=O)N[C@@H](CCCCN)C(=O)N[C@@H](CCCCN)C(=O)N[C@@H](CCCNC(=N)N)C(=O)N[C@H](C(=O)N[C@H](C(=O)N[C@@H](CCC(N)=O)C(=O)N[C@@H](CCCNC(=N)N)C(=O)N[C@H](C(=O)N[C@@H](CCCCN)C(=O)N[C@@H](CC(=O)O)C(=O)N[C@@H](Cc1ccccc1)C(=O)N[C@@H](CC(C)C)C(=O)N[C@@H](CCCNC(=N)N)C(N)=O)[C@@H](C)CC)C(C)C)[C@@H](C)CC [IV, C8^α-Lys-KR12-NH2] (Octanoyl-KKRIVQRIKDFLR-NH2)	256
CC[C@H](C)[C@H](NC(=O)[C@H](CCCNC(=N)N)NC(=O)[C@H](CCC(N)=O)NC(=O)[C@@H](NC(=O)[C@@H](NC(=O)[C@H](CCCNC(=N)N)NC(=O)[C@H](CCCCN)NC(=O)CCc1ccccc1)[C@@H](C)CC)C(C)C)C(=O)N[C@@H](CCCCN)C(=O)N[C@@H](CC(=O)O)C(=O)N[C@@H](Cc1ccccc1)C(=O)N[C@@H](CC(C)C)C(=O)N[C@@H](CCCNC(=N)N)C(N)=O [XVII, 3-Phenylpropionic acid-KR12-NH2] (Hydrocinnamoyl-KRIVQRIKDFLR-NH2)	256

---

tested on: S. aureus ATCC 33591 (MRSA); assay type: cell-based, Staphylococcus aureus; settings: ATCC 33591, 18 h
Where a SMILES comes first, the peptide text is derived from it. The star is where a group is joined. Octanoyl = CCCCCCCC(=O)*; X3 = CCCCC(CC)C(=O)*
recordedEndpoint: MIC S. aureus 33591 (µg/mL)

compound	observedResult
CCCCC(CC)C(=O)N[C@@H](CCCCN)C(=O)N[C@@H](CCCNC(=N)N)C(=O)N[C@H](C(=O)N[C@H](C(=O)N[C@@H](CCC(N)=O)C(=O)N[C@@H](CCCNC(=N)N)C(=O)N[C@H](C(=O)N[C@@H](CCCCN)C(=O)N[C@@H](CC(=O)O)C(=O)N[C@@H](Cc1ccccc1)C(=O)N[C@@H](CC(C)C)C(=O)N[C@@H](CCCNC(=N)N)C(N)=O)[C@@H](C)CC)C(C)C)[C@@H](C)CC (some centres unmarked) [XIV, 2-Ethylhexanoic acid-KR12-NH2] (X3-KRIVQRIKDFLR-NH2)	16
CCCCCCCC(=O)NCCCC[C@H](NC(=O)[C@H](CCCNC(=N)N)NC(=O)[C@@H](NC(=O)[C@@H](NC(=O)[C@H](CCC(N)=O)NC(=O)[C@H](CCCNC(=N)N)NC(=O)[C@@H](NC(=O)[C@H](CCCCN)NC(=O)[C@H](CC(=O)O)NC(=O)[C@H](Cc1ccccc1)NC(=O)[C@H](CC(C)C)NC(=O)[C@@H](N)CCCNC(=N)N)[C@@H](C)CC)C(C)C)[C@@H](C)CC)C(N)=O [XI, retro-KR12-C8^ε-NH2] (H-RLFDKIRQVIRK(Octanoyl)-NH2)	512

---

system: human red blood cells (hRBCs); test: Hemolysis assay; details: 4% (v/v) erythrocytes in PBS, peptides 1–512 µg/mL, 1 h at 37 °C, hemoglobin at 540 nm, 100% = 1% Triton-X 100; ≥ means less than 5% hemolysis up to 512 µg/mL
Where a SMILES comes first, the peptide text is derived from it. The star is where a group is joined. Octanoyl = CCCCCCCC(=O)*; PhAc = O=C(Cc1ccccc1)*
Listing of entries alongside the reported MHC5 (minimum hemolytic concentration causing 5% hemolysis of hRBCs).
recordedEndpoint: MHC5 (minimum hemolytic concentration causing 5% hemolysis of hRBCs) (µg/mL)

compound	unitSymbol	qualifyingSign	observedResult
CC[C@H](C)[C@H](NC(=O)[C@H](CCCNC(=N)N)NC(=O)[C@H](CCC(N)=O)NC(=O)[C@@H](NC(=O)[C@@H](NC(=O)[C@H](CCCNC(=N)N)NC(=O)[C@H](CCCCN)NC(=O)Cc1ccccc1)[C@@H](C)CC)C(C)C)C(=O)N[C@@H](CCCCN)C(=O)N[C@@H](CC(=O)O)C(=O)N[C@@H](Cc1ccccc1)C(=O)N[C@@H](CC(C)C)C(=O)N[C@@H](CCCNC(=N)N)C(N)=O [XVI, Phenylacetic acid-KR12-NH2] (PhAc-KRIVQRIKDFLR-NH2)	µg/mL	=	256
CCCCCCCC(=O)N[C@@H](CCCNC(=N)N)C(=O)N[C@@H](CC(C)C)C(=O)N[C@@H](Cc1ccccc1)C(=O)N[C@@H](CC(=O)O)C(=O)N[C@@H](CCCCN)C(=O)N[C@H](C(=O)N[C@@H](CCCNC(=N)N)C(=O)N[C@@H](CCC(N)=O)C(=O)N[C@H](C(=O)N[C@H](C(=O)N[C@@H](CCCNC(=N)N)C(=O)N[C@@H](CCCCN)C(N)=O)[C@@H](C)CC)C(C)C)[C@@H](C)CC [XII, C8^α-retro-KR12-NH2] (Octanoyl-RLFDKIRQVIRK-NH2)	µg/mL	≥	512

Reference source: paper PMC10053710
